The binders listed here are annotated with their pKd.
# target desc: T1, recombinant human TL1A-his (processed secreted human TL1A with an N-terminal his-tag) (human, UniProt O95150 72-251)
# T1 construct: also called recombinant histidine tagged human TL1A; histidine-tagged human TL1A
# T1 sequence: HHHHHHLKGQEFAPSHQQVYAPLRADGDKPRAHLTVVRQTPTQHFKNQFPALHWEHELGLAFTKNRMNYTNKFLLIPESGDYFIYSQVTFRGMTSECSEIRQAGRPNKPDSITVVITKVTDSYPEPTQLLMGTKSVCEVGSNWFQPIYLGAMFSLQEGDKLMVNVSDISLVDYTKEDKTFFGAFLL
# method description: SPR (BIAcore 2000), antibody captured on protein-A, his-tagged human TL1A as analyte
pKd: −log10 of the molar value.
parameter measured: pKd

1. VH4/VL1 humanized 5G6 antibody (antibody, human IgG1, kappa, V domains shown) VH: QVQLVQSGAEVKKPGASVKVSCKASGYTFTSSWMHWARQAPGQGLEWIGEIHPNSGGTNYAQKFQGRVTMTVDTSISTAYMELSRLRSDDTAVYYCARGDYYGYVSWFAYWGQGTLVTVSS VL: DIQMTQSPSSLSASVGDRVTITCQASQNINVLLNWYQQKPGKAPKLLIYKASNLHTGVPSRFSGSGSGTDFTFTISSLQPEDIATYYCQQGQSYPYTFGQGTKLEIKR : 9.17
2. VH2/VL2 humanized 5G6 antibody (antibody, human IgG1, kappa, V domains shown) VH: QVQLVQSGAEVKKPGASVKVSCKASGYTFTSSWMHWARQAPGQGLEWIGEIHPNSGGTNYAQKFQGRATLTVDTSSSTAYMELSRLRSDDTAVYYCARGDYYGYVSWFAYWGQGTLVTVSS VL: DIQMNQSPSSLSASVGDRVTITCQASQNINVLLSWYQQKPGKAPKLLIYKASNLHTGVPSRFSGSGSGTDFTFTISSLQPEDIATYYCQQGQSYPYTFGQGTKLEIKR : 9.07
3. VH3/VL1 humanized 5G6 antibody (antibody, human IgG1, kappa, V domains shown) VH: QVQLVQSGAEVKKPGASVKVSCKASGYTFTSSWMHWARQAPGQGLEWIGEIHPNSGGTNYAQKFQGRATMTVDTSISTAYMELSRLRSDDTAVYYCARGDYYGYVSWFAYWGQGTLVTVSS VL: DIQMTQSPSSLSASVGDRVTITCQASQNINVLLNWYQQKPGKAPKLLIYKASNLHTGVPSRFSGSGSGTDFTFTISSLQPEDIATYYCQQGQSYPYTFGQGTKLEIKR : 9.60
4. 5G6 chimeric antibody (murine 5G6 variable domains fused to human IgG1 heavy chain constant domains and a human kappa constant domain) (antibody, V domains shown, Human IGHG1 / kappa chimera; also called Chimera; parental 5G6) VH: QVQLQQPGSVLVRPGASVKVSCKASGYTFTSSWMHWAKQRPGQGLEWIGEIHPNSGGTNYNEKFKGKATLTVDTSSSTAYVDLSSLTSEDSAVYYCARGDYYGYVSWFAYWGQGTLVTVSS VL: DIQMNQSPSSLSASLGDTITITCHASQNINVLLSWYQQKPGNIPKLLIYKASNLHTGVPSRFSGSGSGTGFTFTISSLQPEDIATYYCQQGQSYPYTFGGGTKLEIKR : 9.14
